Origin of the recorded values: ChEMBL document CHEMBL2321795

Tested on: Staphylococcus aureus
Assay: Antibacterial activity against methicillin-resistant Staphylococcus aureus after 16 hrs by NCCLS agar dilution method
Type: functional
Items are presented alongside their recorded MIC.
Observable: MIC

- Compound: "CC(C)(O)c1ccc(-c2ccc3c(c2)OC[C@H]2[C@H](CO)OC(=O)N32)cn1"
  Observable: "MIC"
  Observed measurement: "1 µg/mL"
- Compound: "Cc1cc(N2CCOC2=O)ncc1-c1ccc2c(c1)OC[C@H]1[C@H](CO)OC(=O)N21"
  Observable: "MIC"
  Observed measurement: "0.5 µg/mL"
- Compound: "NCC1CN(c2ccc(-c3ccc4c(c3)OC[C@H]3[C@H](CO)OC(=O)N43)cn2)C(=O)O1 (stereo partly specified)"
  Observable: "MIC"
  Observed measurement: "1 µg/mL"
- Compound: "CC(C)N1CCN(c2ccc(-c3ccc4c(c3)OC[C@H]3[C@H](CO)OC(=O)N43)cn2)C(=O)C1"
  Observable: "MIC"
  Observed measurement: "2 µg/mL"
- Compound: "CC(=O)N1CCN(c2ccc(-c3ccc4c(c3)OC[C@H]3[C@H](CO)OC(=O)N43)cn2)C1=O"
  Observable: "MIC"
  Observed measurement: "4 µg/mL"
- Compound: "O=C1O[C@@H](CO)[C@@H]2COc3cc(-c4ccc(CO)nc4)ccc3N12"
  Observable: "MIC"
  Observed measurement: "1 µg/mL"
- Compound: "CC(=O)c1ccc(-c2ccc3c(c2)OC[C@H]2[C@H](CO)OC(=O)N32)cn1"
  Observable: "MIC"
  Observed measurement: "2 µg/mL"
- Compound: "CN1CCN(c2ccc(-c3ccc4c(c3)OC[C@H]3[C@H](CO)OC(=O)N43)cn2)C(=O)C1"
  Observable: "MIC"
  Observed measurement: "2 µg/mL"
- Compound: "O=C1O[C@@H](CO)[C@@H]2COc3cc(-c4ccc(C(O)C5CC5)nc4)ccc3N12 (stereo partly specified)"
  Observable: "MIC"
  Observed measurement: "1 µg/mL"
- Compound: "CC(=O)NC[C@H]1CN(c2ccc(N3CCOCC3)c(F)c2)C(=O)O1 [LINEZOLID]"
  Observable: "MIC"
  Observed measurement: "1 µg/mL"
- Compound: "CN1CC(c2ccc(-c3ccc4c(c3)OC[C@H]3[C@H](CO)OC(=O)N43)cn2)OC1=O (stereo partly specified)"
  Observable: "MIC"
  Observed measurement: "0.5 µg/mL"
- Compound: "C[C@@H](O)C(O)c1ccc(-c2ccc3c(c2)OC[C@H]2[C@H](CO)OC(=O)N32)cn1 (stereo partly specified)"
  Observable: "MIC"
  Observed measurement: "2 µg/mL"
- Compound: "CCN1CCN(c2ccc(-c3ccc4c(c3)OC[C@H]3[C@H](CO)OC(=O)N43)cn2)CC1"
  Observable: "MIC"
  Observed measurement: "4 µg/mL"
- Compound: "O=C1O[C@H](CO)CN1c1ccc(-c2ccc3c(c2)OC[C@H]2[C@H](CO)OC(=O)N32)cn1"
  Observable: "MIC"
  Observed measurement: "0.5 µg/mL"
- Compound: "CN1CCN(c2ccc(-c3ccc4c(c3)OC[C@H]3[C@H](CO)OC(=O)N43)cn2)C1=O"
  Observable: "MIC"
  Observed measurement: "2 µg/mL"
- Compound: "C[C@@H](O)C(=O)c1ccc(-c2ccc3c(c2)OC[C@H]2[C@H](CO)OC(=O)N32)cn1"
  Observable: "MIC"
  Observed measurement: "0.125 µg/mL"
- Compound: "NC1(c2ccc(-c3ccc4c(c3)OC[C@H]3[C@H](CO)OC(=O)N43)cn2)CC1"
  Observable: "MIC"
  Observed measurement: "1 µg/mL"
- Compound: "O=C1COCCN1c1ccc(-c2ccc3c(c2)OC[C@H]2[C@H](CO)OC(=O)N32)cn1"
  Observable: "MIC"
  Observed measurement: "1 µg/mL"
- Compound: "O=C1O[C@@H](CO)[C@@H]2COc3cc(-c4ccc(C5(O)CCCC5)nc4)ccc3N12"
  Observable: "MIC"
  Observed measurement: "1 µg/mL"
- Compound: "N#Cc1ccc(-c2ccc3c(c2)OC[C@H]2[C@H](CO)OC(=O)N32)cn1"
  Observable: "MIC"
  Observed measurement: "0.25 µg/mL"
- Compound: "NCc1ccc(-c2ccc3c(c2)OC[C@H]2[C@H](CO)OC(=O)N32)cn1"
  Observable: "MIC"
  Observed measurement: "2 µg/mL"
- Compound: "O=C1O[C@@H](CO)[C@@H]2COc3cc(-c4ccc(Cn5cnnn5)nc4)ccc3N12"
  Observable: "MIC"
  Observed measurement: "2 µg/mL"
- Compound: "O=C1OCCN1c1ccc(-c2ccc3c(c2)OC[C@H]2[C@H](CO)OC(=O)N32)cn1"
  Observable: "MIC"
  Observed measurement: "0.5 µg/mL"
- Compound: "CN1CCN(c2ccc(-c3ccc4c(c3)OC[C@H]3[C@H](CO)OC(=O)N43)cn2)CC1"
  Observable: "MIC"
  Observed measurement: "4 µg/mL"
- Compound: "CC(O)c1ccc(-c2ccc3c(c2)OC[C@H]2[C@H](CO)OC(=O)N32)cn1 (stereo partly specified)"
  Observable: "MIC"
  Observed measurement: "1 µg/mL"
- Compound: "O=C1O[C@@H](CO)[C@@H]2COc3cc(-c4ccc(N5CCC(O)CC5)nc4)ccc3N12"
  Observable: "MIC"
  Observed measurement: "2 µg/mL"
- Compound: "CN1C[C@H](c2ccc(-c3ccc4c(c3)OC[C@H]3[C@H](CO)OC(=O)N43)cn2)OC1=O"
  Observable: "MIC"
  Observed measurement: "1 µg/mL"
- Compound: "CN1C[C@@H](c2ccc(-c3ccc4c(c3)OC[C@H]3[C@H](CO)OC(=O)N43)cn2)OC1=O"
  Observable: "MIC"
  Observed measurement: "0.5 µg/mL"
- Compound: "CC(C)N1CC(c2ccc(-c3ccc4c(c3)OC[C@H]3[C@H](CO)OC(=O)N43)cn2)OC1=O (stereo partly specified)"
  Observable: "MIC"
  Observed measurement: "1 µg/mL"
- Compound: "CN1CCC(Oc2ccc(-c3ccc4c(c3)OC[C@H]3[C@H](CO)OC(=O)N43)cn2)CC1"
  Observable: "MIC"
  Observed measurement: "4 µg/mL"
- Compound: "O=C1O[C@@H](CO)CN1c1ccc(-c2ccc3c(c2)OC[C@H]2[C@H](CO)OC(=O)N32)cn1"
  Observable: "MIC"
  Observed measurement: "0.5 µg/mL"
